EXPERIMENT: inhibitors of hydroxyurea-induced Chk1 phosphorylation, primary screen, imaging, HeLa, phospho-Chk1 antibody, percent positive cells (AID 1186)
CONDITION INFO: hydroxyurea-induced phospho-Chk1 immunofluorescence imaging, higher = more signal
PARAMETER MEASURED: z-score
Numbers only.

Some compounds with recorded z-score:
[[record]]
chemical_structure = "C/C=C/CN(C(=O)C#Cc1ccccc1)[C@H](CO[Si](C)(C)C(C)(C)C)c1ccccc1"
assay_value = -0.288

[[record]]
chemical_structure = "COCCOC(=O)N1C(=O)[C@@]2(c3cc(C#CCCO)ccc31)[C@H](C(=O)N1CCN(c3ncccn3)CC1)[C@H]1C(=O)O[C@H](c3ccccc3)[C@H](c3ccccc3)N1[C@@H]2c1ccc(O)cc1"
assay_value = -0.416


Need z-score, item COCCOC(=O)N1C(=O)[C@@]2(c3cc(C#CCC(C(=O)OC)C(=O)OC)ccc31)[C@H](C(=O)N1CCc3cc(OC)c(OC)cc3C1)[C@H]1C(=O)O[C@H](c3ccccc3)[C@H](c3ccccc3)N1[C@@H]2c1ccc(O)cc1
0.182
